The following compounds are shown together with reported IC50 values.
target: Muscarinic acetylcholine receptor M4 (Homo sapiens, UniProt P08173); test: Antagonist activity at human SP/Myc epitope-tagged muscarinic M4 receptor expressed in HEK293T cells assessed as inhibition of carbachol-induced mVenus-fused beta-arrestin2 recruitment preincubated for 15 mins followed by carbachol induction measured after 2 mins by BRET assay; format: cell-based, HEK-293T
Sequence (P08173 whole entry, the tested form may be a part): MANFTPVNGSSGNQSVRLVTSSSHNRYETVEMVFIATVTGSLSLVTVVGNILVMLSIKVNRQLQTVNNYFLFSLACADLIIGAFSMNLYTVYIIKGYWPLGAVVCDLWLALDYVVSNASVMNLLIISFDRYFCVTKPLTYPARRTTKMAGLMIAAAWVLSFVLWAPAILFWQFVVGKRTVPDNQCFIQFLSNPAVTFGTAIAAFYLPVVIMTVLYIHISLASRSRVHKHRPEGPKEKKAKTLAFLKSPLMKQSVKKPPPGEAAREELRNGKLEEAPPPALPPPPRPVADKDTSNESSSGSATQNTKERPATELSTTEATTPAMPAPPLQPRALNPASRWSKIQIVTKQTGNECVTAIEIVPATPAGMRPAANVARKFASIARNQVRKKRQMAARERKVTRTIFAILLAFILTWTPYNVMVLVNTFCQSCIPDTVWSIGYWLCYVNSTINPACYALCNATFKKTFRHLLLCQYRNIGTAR
Express your answer in µM, writing the number without its unit.

# input Tell me IC50 reported for O=C1CCc2ccccc2N1CCCN1CCN(c2ccccc2)CC1
# output 12

# input Answer with the recorded IC50 for the compound listed here: O=C1CCc2ccccc2N1CCCN1CCC(Cc2ccccc2)CC1
# output 1.23

* * *

half-life at 0.5 µM listing for selected compounds.
assay: Half life in mouse liver microsomes at 0.5 uM preincubated for 30 mins followed by NADPH addition measured over 30 mins by HPLC-MS/MS method; assay type: ADME, microsome
Form entry: value (min) — number only.

1. O=C1CCc2ccccc2N1CCCN1CCC(Cc2ccccc2)CC1 : 3.5

Below: the item to evaluate.
# input Answer with the recorded half-life at 0.5 µM for the compound listed here: O=C1CCc2ccccc2N1CCCN1CCN(c2ccccc2)CC1
# output 8.71

* * *

Listed below: Ki values for each entry.
biological target: Alpha-1B adrenergic receptor (Homo sapiens, UniProt P35368); assay: Displacement of [3H]prazosin from human recombinant alpha-1B adrenergic receptor expressed in CHO cell membranes after 30 mins by liquid scintillation counting method
Sequence (P35368 whole entry): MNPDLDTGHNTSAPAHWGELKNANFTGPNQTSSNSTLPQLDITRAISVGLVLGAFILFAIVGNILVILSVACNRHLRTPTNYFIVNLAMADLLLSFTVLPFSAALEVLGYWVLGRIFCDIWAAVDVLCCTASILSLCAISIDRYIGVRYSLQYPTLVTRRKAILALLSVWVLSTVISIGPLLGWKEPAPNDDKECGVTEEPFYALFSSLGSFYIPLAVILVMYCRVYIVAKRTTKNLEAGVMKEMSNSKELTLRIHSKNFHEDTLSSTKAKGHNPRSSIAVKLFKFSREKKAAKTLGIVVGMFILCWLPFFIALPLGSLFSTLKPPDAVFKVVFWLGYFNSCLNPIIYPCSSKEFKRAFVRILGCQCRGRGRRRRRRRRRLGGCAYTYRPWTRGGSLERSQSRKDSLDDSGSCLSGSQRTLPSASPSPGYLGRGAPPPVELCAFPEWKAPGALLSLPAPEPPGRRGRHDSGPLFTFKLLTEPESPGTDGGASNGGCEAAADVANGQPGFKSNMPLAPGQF
Numbers only here, please. The scale is nM.

Consider the following illustrative entries.
1) CCCCC1CCN(CCCN2C(=O)CCc3ccccc32)CC1 : 776
2) O=C1CCc2ccccc2N1CCCN1CCC(Cc2ccccc2)CC1 : 224

Now turn to the next compound.
# input Hello, please tell me recorded Ki for this one: O=C1CCc2ccccc2N1CCCN1CCN(c2ccccc2)CC1
# output 74.1

* * *

test: Ratio of AUC in CD1 mouse brain to AUC in CD1 mouse plasma at 3 mg/kg, sc; type: ADME, organism-based; settings: read-out: Ratio AUC
readout.name: Kp
Answer field: number only, no words.

# input Provide one value: measured Kp of O=C1CCc2ccccc2N1CCCN1CCN(c2ccccc2)CC1
# output 4.35

* * *

biological target: Sodium-dependent serotonin transporter (Rattus norvegicus)
Sequence (P31652 whole entry): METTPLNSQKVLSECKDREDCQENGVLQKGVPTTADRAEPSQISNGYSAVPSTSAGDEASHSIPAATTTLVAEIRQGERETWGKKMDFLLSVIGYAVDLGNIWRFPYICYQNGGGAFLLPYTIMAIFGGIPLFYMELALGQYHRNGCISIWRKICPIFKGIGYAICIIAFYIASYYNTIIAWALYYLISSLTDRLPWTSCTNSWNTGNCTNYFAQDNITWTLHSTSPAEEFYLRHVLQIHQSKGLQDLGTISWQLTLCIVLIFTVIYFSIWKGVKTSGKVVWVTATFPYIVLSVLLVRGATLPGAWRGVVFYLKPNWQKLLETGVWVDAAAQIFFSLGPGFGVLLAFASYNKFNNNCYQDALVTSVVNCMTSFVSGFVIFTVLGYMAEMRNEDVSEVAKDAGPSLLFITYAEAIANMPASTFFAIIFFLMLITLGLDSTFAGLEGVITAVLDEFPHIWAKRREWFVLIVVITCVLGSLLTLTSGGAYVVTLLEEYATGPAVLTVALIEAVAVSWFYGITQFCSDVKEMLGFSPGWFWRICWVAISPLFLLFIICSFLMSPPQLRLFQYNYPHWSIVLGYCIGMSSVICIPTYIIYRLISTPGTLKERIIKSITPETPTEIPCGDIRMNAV
Below, each of the molecules is paired with its reported Ki value.
// note: answer is a bare numeric in µM

1) O=C1CCc2ccccc2N1CCCN1CCN(c2ccccc2)CC1 : 5.01

Please find the next molecule below.
# input Supply recorded Ki for O=C1CCc2ccccc2N1CCCN1CCC(Cc2ccccc2)CC1 here.
# output 0.0468

* * *

target: UniProtKB P35462
Sequence (P35462 whole entry): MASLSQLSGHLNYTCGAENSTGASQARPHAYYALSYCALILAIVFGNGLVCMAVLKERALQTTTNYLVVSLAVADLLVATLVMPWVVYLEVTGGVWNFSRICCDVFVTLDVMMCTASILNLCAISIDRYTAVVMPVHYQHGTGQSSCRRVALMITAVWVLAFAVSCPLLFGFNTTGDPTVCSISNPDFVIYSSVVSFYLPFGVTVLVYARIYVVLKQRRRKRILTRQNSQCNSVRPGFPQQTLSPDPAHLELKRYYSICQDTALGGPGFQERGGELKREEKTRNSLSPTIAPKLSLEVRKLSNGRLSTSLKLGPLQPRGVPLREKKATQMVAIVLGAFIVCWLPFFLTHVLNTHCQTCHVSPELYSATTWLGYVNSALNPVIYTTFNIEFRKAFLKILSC
pKi: −log10 of the molar value.
# if value of pKi reaches 6, tag fulfilled; if it stays below, tag not fulfilled

1) CCCCN1CCN(CCCN2C(=O)CCc3ccccc32)CC1 : not fulfilled

# input Check this molecule for pKi at or above 6: CCCC1CCN(CCCN2C(=O)CCc3ccccc32)CC1
# output not fulfilled

# input Confirm if pKi reported for the molecule O=C1CCc2ccccc2N1CCCN1CCC(CCc2ccccc2)CC1 is 6 or above.
# output fulfilled

# input Can O=C1CCc2ccccc2N1CCCN1CCC(Cc2ccccc2)CC1 be said to have pKi at or above 6?
# output not fulfilled

* * *

assay: Cmax in CD1 mouse brain at 3 mg/kg, sc after 0.25 hrs by UPLC-MS analysis; assay type: ADME, organism-based; design: dose 3 mg/kg, route subcutaneous
readout.name: Cmax (ng/g)
The answer is to be given in ng/g; state only the numeric part.

# input Identify Cmax associated with the compound O=C1CCc2ccccc2N1CCCN1CCN(c2ccccc2)CC1
# output 2050
